Target: T1, recombinant human glucagon receptor (human, UniProt P47871 26-477)
T1 construct: whole, on cells; cAMP assay: whole 293HEK cells; also called hGcg-R; human Gcg-R
T1 sequence (P47871 26-477): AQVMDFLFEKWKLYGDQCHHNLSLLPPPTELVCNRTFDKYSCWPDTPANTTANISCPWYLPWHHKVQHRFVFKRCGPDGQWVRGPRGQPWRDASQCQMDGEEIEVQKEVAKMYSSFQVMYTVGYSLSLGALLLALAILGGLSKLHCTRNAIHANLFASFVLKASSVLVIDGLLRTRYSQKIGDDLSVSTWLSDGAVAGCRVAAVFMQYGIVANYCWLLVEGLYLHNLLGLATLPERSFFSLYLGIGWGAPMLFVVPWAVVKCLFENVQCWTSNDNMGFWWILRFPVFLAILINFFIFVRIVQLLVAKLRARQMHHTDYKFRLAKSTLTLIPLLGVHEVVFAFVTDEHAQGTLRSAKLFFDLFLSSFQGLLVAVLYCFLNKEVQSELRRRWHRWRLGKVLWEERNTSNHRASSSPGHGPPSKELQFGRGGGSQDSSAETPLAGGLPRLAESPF
Assay: I-125-Gcg competition SPA, membranes of 293HEK cells expressing hGcg-R
Method: The specific activity is 2200 Ci/mmol. KD determination is performed by homologous competition or saturation binding analysis. The receptor binding assay is carried out using a Scintillation Proximity Assay (SPA) format with wheat germ agglutinin (WGA) beads (Perkin Elmer). […]
# strict inequality: Ki < 1000 pM yields True, everything else yields False

Q: # strict comparison: is reported Ki < 1000 pM? input = YXQGTFTSDYSKYLDXKKAXEFVAWLLEE (Aib at positions 2 and 16; K20 epsilon-amino group conjugated with ([2-(2-Amino-ethoxy)-ethoxy]-acetyl)2-(γGlu)1-CO-(CH2)16-CO2H; C-terminal acid) [Example 6]
Result: True

Q: Do the same for YXQGTFTSDYSKYLDXKKAXEFVEWLLETGPSSGAPPPS (Aib at positions 2 and 16; K20 epsilon-amino group conjugated with ([2-(2-Amino-ethoxy)-ethoxy]-acetyl)2-(γGlu)2-CO-(CH2)18-CO2H; C-terminal primary amide) [Example 2] please
Result: False

Q: Do the same for YXQGTFTSDYSKYLDXKKAXEFVEWLLETGPSSGAPPPS (Aib at positions 2 and 16; K20 epsilon-amino group conjugated with ([2-(2-Amino-ethoxy)-ethoxy]-acetyl)2-(γGlu)2-CO-(CH2)16-CO2H; C-terminal primary amide) [Example 1] please
Result: False

Q: Do the same for YXQGTFLSDYSKYLDXKKAXEFVEWLLETGPSSGAPPPS (Aib at positions 2 and 16; K20 epsilon-amino group conjugated with ([2-(2-Amino-ethoxy)-ethoxy]-acetyl)2-(γGlu)2-CO-(CH2)16-CO2H; C-terminal primary amide) [Example 3] please
Result: True

Q: Do the same for YXQGTFTSDYSKYLDXKKAXEFVAWLLEE (Aib at positions 2 and 16; K20 epsilon-amino group conjugated with ([2-(2-Amino-ethoxy)-ethoxy]-acetyl)2-(γGlu)1-CO-(CH2)18-CO2H; C-terminal acid) [Example 7] please
Result: True
